TESTED TARGET: T1, human CX3CR1 (human, UniProt P49238 1-355)
T1 construct: Overexpressed on CHO K1, Ba/F3 or HEK293T cells; also called huCX3CR1; hCX3CR1
T1 sequence: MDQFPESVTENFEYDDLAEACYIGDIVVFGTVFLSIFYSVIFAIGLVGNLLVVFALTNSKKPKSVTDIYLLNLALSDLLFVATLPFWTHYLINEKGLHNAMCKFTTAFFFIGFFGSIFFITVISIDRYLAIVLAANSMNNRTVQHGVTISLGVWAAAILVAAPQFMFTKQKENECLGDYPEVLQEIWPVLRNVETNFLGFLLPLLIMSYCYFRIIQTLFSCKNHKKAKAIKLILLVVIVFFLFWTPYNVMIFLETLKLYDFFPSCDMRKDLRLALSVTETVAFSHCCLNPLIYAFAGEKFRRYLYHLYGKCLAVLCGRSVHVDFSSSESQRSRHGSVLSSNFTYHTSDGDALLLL
ASSAY METHOD TEXT: flow cytometry on transiently transfected HEK293T cells, human CX3CR1 WT
Reported EC50 is given for each of the following binders.
Note: unit nM is implicit; provide only the numeric part.

# binder A041600041 (VHH, Trivalent ISVD construct (two anti-CX3CR1 ISVDs, one anti-albumin ISVD), C-terminal alanine included in the entry; also called 54A12_SO (E1D)-9GS-66B02_SO-9GS-ALB23002-A) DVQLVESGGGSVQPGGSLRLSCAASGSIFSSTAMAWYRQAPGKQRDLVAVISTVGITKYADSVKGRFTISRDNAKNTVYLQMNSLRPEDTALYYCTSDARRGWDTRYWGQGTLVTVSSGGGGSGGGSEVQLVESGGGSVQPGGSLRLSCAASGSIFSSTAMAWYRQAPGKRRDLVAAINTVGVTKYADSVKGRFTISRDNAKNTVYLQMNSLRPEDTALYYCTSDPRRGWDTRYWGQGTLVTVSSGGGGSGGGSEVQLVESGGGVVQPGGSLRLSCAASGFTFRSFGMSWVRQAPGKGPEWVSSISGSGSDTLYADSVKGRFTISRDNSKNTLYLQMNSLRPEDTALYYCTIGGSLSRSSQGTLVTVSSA ; its EC50 = 0.16

---
# binder A041600034 (VHH, Trivalent ISVD construct; also called 54A12_SO (E1D)-9GS-ALB23002-9GS-66B02_SO-A) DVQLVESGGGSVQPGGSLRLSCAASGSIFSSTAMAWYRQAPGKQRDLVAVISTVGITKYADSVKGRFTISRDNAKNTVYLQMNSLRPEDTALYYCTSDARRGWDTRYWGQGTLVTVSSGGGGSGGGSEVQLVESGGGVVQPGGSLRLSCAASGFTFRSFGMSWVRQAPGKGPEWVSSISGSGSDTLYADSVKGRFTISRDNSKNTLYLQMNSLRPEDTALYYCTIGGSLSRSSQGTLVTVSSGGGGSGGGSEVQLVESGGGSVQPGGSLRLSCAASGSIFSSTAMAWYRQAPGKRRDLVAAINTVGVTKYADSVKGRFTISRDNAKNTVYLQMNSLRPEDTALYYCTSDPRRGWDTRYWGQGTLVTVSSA ; its EC50 = 0.1

# credit: patent US20240117038A1
